Sourced from paper PMC5339707

Quick list: stoichiometry N per entry.
- TARGET DESC: the molecule itself
- PROCEDURE TEXT: SEC-MALS; self-association of His6-SspB-CCD fusion proteins (ACCORD); Superdex 200 10/300 GL, 50 mM Tris pH 8.0, 0.5 mM TCEP, 200 mM NaCl; sample 3-5 mg/ml, 0.5 ml
Just the number, please, no unit after it.

PROTEIN: His6-SspB-APC (2-55) fusion protein (other, E. coli | H. sapiens, UniProt P0AFZ3 1-165, looked up, Stringent starvation protein B (SspB), E. coli, full length, residues 1-165 (M1-K165), amplified from genomic DNA; Adenomatous polyposis coli protein (APC), human, coiled-coil domain, residues 2-55 (A2-I55); CCD ligated behind SspB in the His6-SspB vector (BamHI at the 5' end); vector holds TEV and thrombin cleavage sites; source: E. coli BL21(DE3), purified (HisTrap, Superdex 200); not shown: …) MDLSQLTPRRPYLLRAFYEWLLDNQLTPHLVVDVTLPGVQVPMEYARDGQIVLNIAPRAVGNLELANDEVRFNARFGGIPRQVSVPLAAVLAIYARENGAGTMFEPEAAYDEDTSIMNDEEASADNETVMSVIDGDKPDHDDDTHPDDEPPQPPRGGRPALRVVKAAASYDQLLKQVEALKMENSNLRQELEDNSNHLTKLETEASNMKEVLKQLQGSI
stoichiometry N: 2

*Q* Item under review: His6-SspB-NDP52 (141-334) fusion protein (other, E. coli | H. sapiens, UniProt P0AFZ3 1-165, looked up, Stringent starvation protein B (SspB), E. coli, full length, residues 1-165 (M1-K165), amplified from genomic DNA; source: E. coli BL21(DE3), purified (HisTrap, Superdex 200); not shown: His6, N-terminal, kept) MDLSQLTPRRPYLLRAFYEWLLDNQLTPHLVVDVTLPGVQVPMEYARDGQIVLNIAPRAVGNLELANDEVRFNARFGGIPRQVSVPLAAVLAIYARENGAGTMFEPEAAYDEDTSIMNDEEASADNETVMSVIDGDKPDHDDDTHPDDEPPQPPRGGRPALRVVKEVEEIEQHNKELCKENQELKDSCISLQKQNSDMQAELQKKQEELETLQSINKKLELKVKEQKDYWETELLQLKEQNQKMSSENEKMGIRVDQLQAQLSTQEKEMEKLVQGDQDKTEQLEQLKKENDHLFLSLTEQRKDQKKLEQTVEQMKQNETTAMKKQQELMDENFDLSKRLSENEIICNALQRQKERLEGE . Reported stoichiometry N?
*A* 2
